- MEASURED TARGET: Wnt-responsive promoter (TCF/LEF)
- RUN DESCRIPTION: Wnt-dependent luciferase reporter assay
Where a SMILES comes first, the peptide text is derived from it.
REPORTED ENDPOINT: EC50

Q: Lab note: need EC50 for CC[C@H](C)[C@@H]1NC(=O)[C@H](CC(C)C)NC(=O)[C@H](Cc2ccc(O)cc2)NC(=O)[C@H](Cc2c[nH]c3ccccc23)NC(=O)[C@H](CCSC)NC(=O)[C@H](CCCNC(=N)N)NC(=O)[C@H](CO)NC(=O)[C@H](CCSC)NC(=O)[C@@H](N)CCCCNC(=O)CNC(=O)[C@H](Cc2c[nH]c3ccccc23)NC(=O)[C@H](Cc2ccccc2)NC(=O)[C@H](CO)NC1=O [compound 27] (HELM PEPTIDE1{K.M.S.R.M.W.Y.L.I.S.F.W.G}$PEPTIDE1,PEPTIDE1,1:R3-13:R2$$$V2.0; bridges inferred) on Wnt-responsive promoter (TCF/LEF), anyone have it?
A: > 30 µM

* * *

- MEASUREMENT SETUP: % Viability non-Wnt responsive cells
Where a SMILES comes first, the peptide text is derived from it.
# maps each entry to its viability
Dear colleague, please return just the value in %, with no unit written.

COMPOUND	viability [%]
CC[C@H](C)[C@@H]1NC(=O)[C@H](CC(C)C)NC(=O)[C@H](Cc2ccccc2)NC(=O)[C@H](Cc2c[nH]c3ccccc23)NC(=O)[C@@H](NC(C)=O)CCCCNC(=O)C[C@@H](C(=O)O)NC(=O)[C@H](Cc2c[nH]c3ccccc23)NC(=O)[C@H](C)NC(=O)[C@H](CS)NC1=O [compound 169] (HELM PEPTIDE1{[ac].K.W.F.L.I.C.A.W.D}$PEPTIDE1,PEPTIDE1,2:R3-10:R3$$$V2.0)	93.5
CC[C@H](C)[C@H](NC(=O)[C@H](CC(C)C)NC(=O)[C@H](Cc1ccccc1)NC(=O)[C@H](Cc1c[nH]c2ccccc12)NC(=O)[C@H](CCSC)NC(=O)[C@H](CCCNC(=N)N)NC(=O)[C@H](CO)NC(=O)[C@@H](N)Cc1c[nH]c2ccccc12)C(=O)N[C@@H](CO)C(=O)N[C@@H](Cc1ccccc1)C(=O)N[C@@H](Cc1c[nH]c2ccccc12)C(N)=O [compound 79] (H-WSRMWFLISFW-NH2)	98.8

Q: Would you kindly share the measured viability for CC[C@H](C)[C@@H]1NC(=O)[C@H](CC(C)C)NC(=O)[C@H](Cc2ccccc2)NC(=O)[C@H](Cc2c[nH]c3ccccc23)NC(=O)[C@H](CCSC)NC(=O)[C@@H](N)CCCCNC(=O)C[C@@H](C(=O)O)NC(=O)[C@H](Cc2c[nH]c3ccccc23)NC(=O)[C@H](Cc2ccccc2)NC(=O)[C@H](CS)NC1=O [compound 170] (HELM PEPTIDE1{K.M.W.F.L.I.C.F.W.D}$PEPTIDE1,PEPTIDE1,1:R3-10:R3$$$V2.0) ?
A: 107

* * *

- MEASURED TARGET: Wnt-responsive promoter (TCF/LEF)
- RUN DESCRIPTION: Wnt-dependent luciferase reporter assay
Where a SMILES comes first, the peptide text is derived from it.
# maps each entry to its EC50

Q: Would you kindly share the measured EC50 for CC[C@H](C)[C@H](NC(=O)[C@H](CC(C)C)NC(=O)[C@H](Cc1ccccc1)NC(=O)[C@H](Cc1c[nH]c2ccccc12)NC(=O)[C@H](CCSC)NC(=O)[C@H](CCCNC(=N)N)NC(=O)[C@H](CO)NC(=O)[C@@H](N)CCSC)C(=O)N[C@@H](CO)C(=O)N[C@@H](Cc1ccccc1)C(=O)N[C@@H](Cc1c[nH]c2ccccc12)C(=O)NCC(=O)O [compound 41] (H-MSRMWFLISFWG-OH) ?
A: < 7.5 µM
